System: H929 multiple myeloma tumor line
assay.name: In vitro cytotoxicity, MTT assay (Example B, Method A)
Format: cell-based
experimental.setup: H929 cells, 48 hours exposure, read-out: C50
readout.name: pIC50
Reminder that pIC50 means the negative base-10 logarithm of the concentration expressed in mol/L.

Answered examples (4):
C[C@@H]1CCCc2nccc(OCC(CC3Cc4ccccc4[C@]34CC[C@@](Nc3cccc(Cl)c3)(C(=O)O)CC4)C(F)F)c21 (single isomer, unassigned) [Example 521] ... 6.01
CC(O)c1ccc2c(c1)[C@]1(CC[C@@](Nc3cccc(Cl)c3)(C(=O)O)CC1)[C@@H](C[C@@H](C)COc1ccnc3c1[C@H](C)CC[C@H]3F)C2 (single isomer, unassigned) [Example 863] ... 7.12
CC1CCc2nccc(OC[C@H](C)CC3=Cc4ccccc4[C@]34CC[C@@](Nc3cccc(Cl)c3)(C(=O)O)CC4)c21 (single isomer, unassigned) [Example 630] ... 6.47
C[C@@H]1CCCc2nccc(OCC(CC3Cc4ccccc4[C@]34CC[C@@](Nc3cccc(Cl)c3)(C(=O)O)CC4)C(F)F)c21 (single isomer, unassigned) [Example 518] ... 4.92

Okay, next one:
Prompt: For the molecule C[C@@H](COc1ccnc2c1CCCC2C(F)F)C[C@H]1Cc2ccccc2[C@]12CC[C@@](Nc1cccc(Cl)c1)(C(=O)O)CC2 (single isomer, unassigned) , give its reported pIC50.
Completion: 5.01

---

experimental.target: Mcl-1 protein (UniProtKB Q07820) (Homo sapiens (Human), UniProt Q07820)
Sequence (Q07820 whole entry): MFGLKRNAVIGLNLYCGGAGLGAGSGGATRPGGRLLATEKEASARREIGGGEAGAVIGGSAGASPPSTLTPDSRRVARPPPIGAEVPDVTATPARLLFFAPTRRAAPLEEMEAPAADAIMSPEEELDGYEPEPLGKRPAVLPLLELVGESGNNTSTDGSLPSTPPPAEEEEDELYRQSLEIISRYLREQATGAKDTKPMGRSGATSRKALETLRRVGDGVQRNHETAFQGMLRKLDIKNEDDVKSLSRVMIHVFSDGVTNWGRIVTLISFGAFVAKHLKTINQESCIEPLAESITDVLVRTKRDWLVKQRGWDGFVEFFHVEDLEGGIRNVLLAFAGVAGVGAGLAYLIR
assay.name: Inhibition of Mcl-1 by the fluorescence polarisation assay (Example A, Method A)
experimental.setup: fluorescence polarization assay
# reported Ki; entries follow
Give the value in nM but do not write nM after it.

Answered examples (3):
O=C(O)[C@]1(Nc2cccc(Cl)c2)CC[C@@]2(CC1)c1ccccc1CC2c1ccc(Oc2ccncc2)cc1 (single isomer, unassigned) [Example 365] ... 3090
O=C(O)[C@]1(Nc2cccc(Cl)c2)CC[C@]2(CC1)C(COCCc1cccc(Cl)c1)=Cc1ccccc12 ... 522
O=C(NCc1ccccc1)C1=Cc2ccccc2[C@]12CC[C@@](Nc1cccc(Cl)c1)(C(=O)O)CC2 ... 12800

Prompt: For the molecule CN1c2ccccc2C2(CCC(Nc3cccc(Br)c3)(C(=O)O)CC2)C1CCc1ccccc1 (single isomer, unassigned) , give its reported Ki.
Completion: 887

Prompt: For the molecule Cc1c[nH]c2cccc(OCCC[C@@H]3Cc4ccccc4[C@]34CC[C@@](Nc3cccc(Cl)c3)(C(=O)O)CC4)c12 , give its reported Ki.
Completion: 174

Prompt: For the molecule COc1ccc(C2=Cc3ccccc3[C@]23CC[C@](Nc2cccc(Cl)c2)(C(=O)O)CC3)cc1C , give its reported Ki.
Completion: 22300

Prompt: For the molecule O=C(O)C1(Nc2cccc(Cl)c2)CCC2(CC1)c1ccccc1CC2CCCOc1ncnc2ccsc12 (centres unmarked) , give its reported Ki.
Completion: 77.6

---

experimental.target: Cy5-labelled Mcl1 (amino acids 171-321) C286S protein (UniProtKB Q07820) (Homo sapiens (Human), UniProt Q07820, C286S)
Sequence (Q07820 171-321 C286S): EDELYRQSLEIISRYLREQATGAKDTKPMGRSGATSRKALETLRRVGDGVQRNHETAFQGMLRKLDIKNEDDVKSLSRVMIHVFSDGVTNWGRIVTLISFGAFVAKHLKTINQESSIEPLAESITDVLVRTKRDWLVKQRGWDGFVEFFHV
assay.name: Inhibition of Mcl-1 by the fluorescence quenching assay (Example A, Method B)
Assay type: binding
pKi: −log10 of the molar value.
Kindly return 1 (yes) if reported pKi is no lower than 8; return 0 (no) if it is lower.

See these solved cases before continuing.
Cc1cc(Cl)cc(N[C@]2(C(=O)O)CC[C@]3(CC2)c2ccccc2C[C@@H]3C[C@@H](C)COc2ccnc3c2[C@H](C)CCC3)c1 [Example 710] ... 0 (no)
C[C@@H](COc1ccnc2c1[C@H](C)CCC2)C[C@H]1Cc2cc3c(cc2[C@]12CC[C@@](Nc1cccc(Cl)c1)(C(=O)O)CC2)OCC3 [Example 850] ... 1 (yes)

Prompt: Evaluate CC1COc2cc3c(cc2OC1)[C@]1(CC[C@@](Nc2cccc(Cl)c2)(C(=O)O)CC1)[C@@H](C[C@@H](C)COc1ccnc2c1[C@H](C)CCC2)C3 (single isomer, unassigned) [Example 982] : pKi at minimum 8?
Completion: 1 (yes)

Prompt: Evaluate CC1CCCc2nccc(NC[C@H](C)C[C@H]3Cc4ccccc4[C@]34CC[C@@](Nc3cccc(Cl)c3)(C(=O)O)CC4)c21 (stereo partly drawn) [Example 655] : pKi at minimum 8?
Completion: 0 (no)

Prompt: Evaluate C[C@@H](COc1ccnc2c1[C@H](C)CC[C@H]2F)C[C@H]1Cc2cc3c(cc2[C@]12CC[C@@](Nc1cccc(Cl)c1)(C(=O)O)CC2)OCCO3 [Example 964] : pKi at minimum 8?
Completion: 1 (yes)

---

experimental.target: Mcl-1 protein (UniProtKB Q07820) (Homo sapiens (Human), UniProt Q07820)
assay.name: Inhibition of Mcl-1 by the fluorescence polarisation assay (Example A, Method A)
experimental.setup: fluorescence polarization assay
pKi: −log10 of the molar value.
Kindly return y if reported pKi is no lower than 6; return n if it is lower.

See these solved cases before continuing.
O=C(O)[C@]1(Nc2cccc(Cl)c2)CC[C@@]2(CC1)c1ccccc1CC2CCCOc1ccnc2c1CCCC2F (some centres unmarked) ... y
Cc1cnccc1OC[C@H](C)CC1Cc2ccccc2[C@]12CC[C@@](Nc1cccc(Cl)c1)(C(=O)O)CC2 (some centres unmarked) ... y
COc1cccc(C2=Cc3ccccc3[C@]23CC[C@@](Nc2cccc(Cl)c2)(C(=O)O)CC3)c1C ... y

Prompt: Evaluate O=C(O)[C@]1(Nc2cccc(Cl)c2)CC[C@]2(CC1)C(c1ccoc1)=Cc1ccccc12 : pKi at minimum 6?
Completion: n

Prompt: Evaluate CN1c2ccc(CCc3ccccc3)cc2[C@]2(CC[C@](Nc3cccc(Br)c3)(C(=O)O)CC2)C1=O : pKi at minimum 6?
Completion: n

Prompt: Evaluate C[C@@H](COc1ccnc2c1CC(C)(C)CC2)C[C@H]1Cc2ccccc2[C@]12CC[C@@](Nc1cccc(Cl)c1)(C(=O)O)CC2 : pKi at minimum 6?
Completion: y

Prompt: Evaluate O=C(O)[C@]1(Nc2cccc(Br)c2)CC[C@@]2(CC1)C(c1ccccc1)=Cc1ccccc12 : pKi at minimum 6?
Completion: n

---

# reported Cleaved PARP (fold to control); entries follow
Test system: AMO-1 multiple myeloma xenograft
assay.name: Quantification of the cleaved form of PARP in vivo, IV (Example E)
Design: species or system SCID mice
experimental.setup: 30 mpk IV, single dose, time-point 6 h

CCOc1ccc2c(c1)[C@]1(CC[C@@](Nc3cccc(Cl)c3)(C(=O)O)CC1)[C@@H](C[C@@H](C)COc1ccnc3c1[C@H](C)CCC3)C2 ... 174.2 fold to control
C[C@@H](COc1ccnc2c1[C@H](C)CCC2)C[C@H]1Cc2cc3c(cc2[C@]12CC[C@@](Nc1cccc(Cl)c1)(C(=O)O)CC2)OCO3 ... 166.3 fold to control
C[C@@H](COc1ccnc2c1[C@H](C)CCC2)C[C@H]1Cc2cc3c(cc2[C@]12CC[C@@](Nc1ccc(F)c(Cl)c1)(C(=O)O)CC2)OCO3 ... 158.2 fold to control

Okay, next one:
Prompt: For the compound COCc1ccc2c(c1)[C@]1(CC[C@@](Nc3cccc(Cl)c3)(C(=O)O)CC1)[C@@H](C[C@@H](C)COc1ccnc3c1[C@H](C)CCC3)C2 , give its reported Cleaved PARP (fold to control).
Completion: 199.9 fold to control

---

experimental.target: Mcl-1 protein (UniProtKB Q07820) (Homo sapiens (Human), UniProt Q07820)
assay.name: Inhibition of Mcl-1 by the fluorescence polarisation assay (Example A, Method A)
Format: binding
experimental.setup: fluorescence polarization assay
# reported Ki; entries follow
Give the value in nM but do not write nM after it.

Answered examples (3):
O=C(O)[C@]1(Nc2cccc(Cl)c2)CC[C@]2(CC1)C(c1cccc(Oc3ccccc3)c1)=Cc1ccccc12 [Example 300] ... 174
O=C(O)[C@]1(Nc2cccc(Cl)c2)CC[C@@]2(CC1)c1ccccc1CC2c1coc2ccccc12 (single isomer, unassigned) [Example 284] ... 1220
COc1cc(C)cc(C2=Cc3ccccc3[C@]23CC[C@@](Nc2cccc(Cl)c2)(C(=O)O)CC3)c1 [Example 310] ... 721

Okay, next one:
Prompt: Write down the reported Ki (system: Mcl-1 protein (UniProtKB Q07820) (Homo sapiens (Human), UniProt Q07820)) of O=C(O)[C@]1(Nc2cccc(Cl)c2)CC[C@@]2(CC1)C(Br)=Cc1ccccc12 [Example 74]
Completion: 23100

---

# reported pKi; entries follow
experimental.target: Mcl-1 protein (UniProtKB Q07820) (Homo sapiens (Human), UniProt Q07820)
assay.name: Inhibition of Mcl-1 by the fluorescence polarisation assay (Example A, Method A)
Format: binding
experimental.setup: fluorescence polarization assay
Reminder that pKi means the negative base-10 logarithm of the concentration expressed in mol/L.

O=C(O)C1(Nc2cccc(Br)c2)CCC2(CC1)c1ccccc1CC2c1ccc(OCc2ccccc2)cc1 (stereo not shown) [Example 244] ... 6.11
O=C(O)[C@]1(Nc2cccc(Cl)c2)CC[C@]2(CC1)C(COCCc1ccccc1)=Cc1ccccc12 [Example 409] ... 6.81
C[C@@H](COc1ccnc(CO)c1)C[C@H]1Cc2ccccc2[C@]12CC[C@@](Nc1cccc(Cl)c1)(C(=O)O)CC2 [Example 579] ... 6.67
O=C(O)[C@]1(Nc2cccc(Cl)c2)CC[C@@]2(CC1)c1ccccc1CC2CCCOc1ccnc2c1CCC2 (stereo partly shown) [Example 452] ... 7.52
CC1CCc2nccc(OCCCC3Cc4ccccc4[C@]34CC[C@@](Nc3cccc(Cl)c3)(C(=O)O)CC4)c21 (stereo partly shown) [Example 478] ... 7.53

Prompt: For the molecule O=C(O)[C@]1(Nc2cccc(Cl)c2)CC[C@]2(CC1)C(C1CN(Cc3c(F)ccc(F)c3F)C1)=Cc1ccccc12 [Example 99] , give its reported pKi.
Completion: 5.54

Prompt: For the molecule COc1cccc(C2Cc3ccccc3[C@]23CC[C@@](Nc2cccc(Cl)c2)(C(=O)O)CC3)c1 (single isomer, unassigned) [Example 273] , give its reported pKi.
Completion: 5.76
